Assay: PK study in rats, single oral administration
Assay type: in vivo, rat
Parameters: concentration or dose not given beside the values
Conditions: rat, single oral administration, plasma, Table 4
Assay Readout: AUC (ng·h/mL)
Form entry: value (ng·h/mL) — number only.

If you can, please state the reported AUC value of C=Cc1cc(CNC(=O)/C=C/c2ccc(C(F)(F)F)cc2)ccc1NS(C)(=O)=O [Comp Cpd F, reference compound] . 40100

###

Test: PK study in rats, single oral administration
Type: in vivo, rat
Design: concentration or dose not given beside the values
Conditions: rat, single oral administration, plasma, Table 3
Assay Readout: AUC (ng·h/mL)
# output: bare number, implied unit ng·h/mL

AUC for CC(C)(C)c1ccc(/C=C/C(=O)NCc2cc(F)c(NS(C)(=O)=O)c(F)c2)cc1 [Comp Cpd B, reference compound] ? 72
